Tested on: PAD
protocol_description: qHTS profiling for inhibitors of Plasmodium falciparum proliferation (AID 504749);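 also: 0% = DMSO vehicle and full inhibition = artemisinin control; nearly all actives have a fitted effect of over 60% in size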
conditions: P. falciparum in erythrocytes, SYBR Green DNA, 72 h; series mostly up to 28.7 µM
Records with an inconclusive call do not appear. Calls of active or inactive are those of the source. Calls follow the shape of the dose curve; as a rule, active = well fitted inhibition curve with a large enough effect; inconclusive = small, poorly fitted or top-dose-only effect; inactive = flat fitted curve, though single readings scatter.
readout_name: outcome

[[record]]
mol = "O=C(O)Cn1c(C(=O)Nc2nc(-c3ccccc3Cl)cs2)cc2ccccc21"
result = "inactive"

[[record]]
mol = "O=C(Cn1ccnc1[N+](=O)[O-])NCc1ccccc1"
result = "inactive"

[[record]]
mol = "O=C1c2ccccc2S(=O)(=O)N1CCCCN1CCN(c2ncccn2)CC1"
result = "inactive"


* * *

assay_target: Phospholipid hydroperoxide glutathione peroxidase GPX4 (Homo sapiens) (UniProt P36969)
Sequence (P36969 whole entry, looked up): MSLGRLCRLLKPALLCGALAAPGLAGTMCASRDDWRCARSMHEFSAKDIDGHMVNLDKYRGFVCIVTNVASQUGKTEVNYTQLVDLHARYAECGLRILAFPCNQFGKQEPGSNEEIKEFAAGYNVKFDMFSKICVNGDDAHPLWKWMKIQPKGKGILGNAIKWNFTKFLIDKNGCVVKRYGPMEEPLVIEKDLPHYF
protocol_description: Primary qHTS Assay for Inhibitors of Recombinant Selenoprotein Glutathione Peroxidase 4 (GPX4) (AID 1845192); also: nearly all actives have a fitted effect of over 65% in size
conditions: recombinant GPX4, GR-coupled NADPH fluorescence, 15 min; series mostly up to 50 µM
Inconclusive results are not listed. The source made the active and inactive calls. Calls follow the shape of the dose curve; as a rule, active = well fitted inhibition curve with a large enough effect; inconclusive = small, poorly fitted or top-dose-only effect; inactive = flat fitted curve, though single readings scatter.
readout_name: outcome

[[record]]
compound = "CN/C(=C\\[N+](=O)[O-])NCCSCc1csc(CN(C)C)n1"
readout_name = "outcome"
result = "inactive"

[[record]]
compound = "C/C(=C(\\CCO)SS/C(CCO)=C(\\C)N(C=O)Cc1cnc(C)nc1N)N(C=O)Cc1cnc(C)nc1N"
readout_name = "outcome"
result = "inactive"

[[record]]
compound = "O=C(O)CCCCC1CCSS1 (configuration not stated)"
readout_name = "outcome"
result = "inactive"

[[record]]
compound = "CCOC(=O)[C@H](CCc1ccccc1)N[C@@H](C)C(=O)N1Cc2cc(OC)c(OC)cc2C[C@H]1C(=O)O"
readout_name = "outcome"
result = "inactive"

[[record]]
compound = "O=C(O)c1ccc(OCCCOc2ccc(C(=O)O)cc2)cc1"
readout_name = "outcome"
result = "inactive"

[[record]]
compound = "CCCNC(C)(C)COC(=O)c1ccccc1"
readout_name = "outcome"
result = "inactive"

[[record]]
compound = "CCCCCCCCCCC(CO)CCCCCCCC (configuration not stated)"
readout_name = "outcome"
result = "inactive"

[[record]]
compound = "CC(=O)Oc1cccc(C)c1"
readout_name = "outcome"
result = "inactive"


Hey, quick one: what's outcome for each of these?
1. O=C(O)COC(=O)Cc1ccccc1Nc1c(Cl)cccc1Cl
2. CC(=O)OCC(COC(C)=O)OC(C)=O
3. O=C(NCC(O)CO)c1c(I)c(C(=O)NCC(O)CO)c(I)c(N(CCO)C(=O)CO)c1I (configuration not stated)

Output:
1. inactive
2. inactive
3. inactive

* * *

protocol_description: Drug repurposing screens with cells derived from glioblastoma tumor samples (AID 1345199); also: % is scaled to controls: 0 for no effect and ±100 for the full control effect; nearly all actives have a fitted effect of over 40% in size
conditions: GBM patient neurospheres viability, ATP luminescence, 48 h; at 46.1 µM (top of the series); tumour line C
Method: CD133+ cells were isolated from GBM patient biopsies and cultured as neurospheres. Neurospheres from four patients were used to screen the NCATS pharmaceutical collection (NPC) library of approved drugs and bioactive compounds. […] The neurospheres were incubated with drugs for 48 hours in 1536-well format, then assayed with an ATP content cell viability assay. […]
Records with an inconclusive call do not appear. The source made the active and inactive calls. The call rests on the fitted dose curve; in most records, active means well fitted inhibition curve with a large enough effect; inconclusive means small, poorly fitted or top-dose-only effect; inactive means flat fitted curve, though single readings scatter.
readout_name: activity, negative = cell killing

// below: answered molecules
[[record]]
mol = "CCN(CC)CCOC(=O)C(c1ccccc1)c1ccccc1"
result = "-20.1% (inactive)"

[[record]]
mol = "NC(=O)N[C@@H](CCC(=O)O)C(=O)O"
result = "-19.7% (inactive)"


Input: Given the entry CC(=O)N[C@H]1[C@H]([C@H](O)[C@H](O)CO)OC(C(=O)O)=C[C@@H]1N=C(N)N , report its measured activity, negative = cell killing.
Output: -20.3% (inactive)

* * *

protocol_description: qHTS assay for small molecule agonists of the antioxidant response element (ARE) signaling pathway measured by Nrf2-dependant transcriptional activity - cell viability counter screen (AID 720653); also: % is scaled to controls: 0 for no effect and ±100 for the full control effect
conditions: ARE-bla HepG2 viability, CellTiter-Glo ATP luminescence, 16 h; hits give low values
Records with an inconclusive call do not appear.
readout_name: max response (%)
Answers are plain numbers, in %.

// below: answered compounds
[[record]]
compound = "CC(=O)Nc1ccc(C(=O)O)cc1"
readout_name = "max response"
quantitative_result = -5.69

[[record]]
compound = "FC(F)(F)C(Cl)Br (stereo not given)"
readout_name = "max response"
quantitative_result = -1.89

[[record]]
compound = "Cc1c(C(=O)NCCO)[n+](=O)c2ccccc2n1[O-]"
readout_name = "max response"
quantitative_result = -7.99


Hey, quick one: what's max response for each of these?
1. CCCC(O)C(CC)CO (stereo not given)
2. OC[C@@H](O)[C@@H](O)[C@H](O)[C@H](O)CO

Output:
0.4
-1.54

* * *

protocol_description: qHTS Assay for Lipid Storage Modulators (AID 1519); also: % is scaled to controls: 0 for no effect and ±100 for the full control effect
conditions: Drosophila S3 cells, BODIPY lipid droplet/cell ratio, laser cytometry; at 25.7 µM (top of the series); cells loaded with oleic acid
Inconclusive results are not listed.
readout_name: activity change, negative = inhibition (%)
Answers are plain numbers, in %.

[[record]]
mol = "Cc1c(NC(=O)c2cccnc2)c(=O)n(-c2ccccc2)n1C"
quantitative_result = -1.84

[[record]]
mol = "CCN(CC)CCc1nc(-c2ccccc2)no1"
quantitative_result = -4.73

[[record]]
mol = "O=C(Cn1ccnc1[N+](=O)[O-])NCCO"
quantitative_result = -0.0007

[[record]]
mol = "Cc1c(NC(C)C)c(=O)n(-c2ccccc2)n1C"
quantitative_result = 1.53

[[record]]
mol = "CN/C(=C\\[N+](=O)[O-])NCCSCc1csc(CN(C)C)n1"
quantitative_result = -0.861


Read the next record carefully.
Input: Given the entry CC(=O)NS(=O)(=O)c1ccc(N)cc1 , report its measured activity change, negative = inhibition.
Output: -1.25

* * *

System: JCK
protocol_description: qHTS profiling for inhibitors of Plasmodium falciparum proliferation (AID 504749);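 also: 0% = DMSO vehicle and full inhibition = artemisinin control; nearly all actives have a fitted effect of over 60% in size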
conditions: P. falciparum in erythrocytes, SYBR Green DNA, 72 h; series mostly up to 28.7 µM
Records with an inconclusive call do not appear. Activity calls are given as the source filed them. Calls come from the whole dose curve; as a rule, active = well fitted inhibition curve with a large enough effect; inconclusive = small, poorly fitted or top-dose-only effect; inactive = flat fitted curve, though single readings scatter.
Please reply with one of these outcomes: active, inactive

Input: So what was the verdict on Cc1ncc(CO)c(CN)c1O in this test?
Output: inactive

Input: So what was the verdict on Cc1cccc(C(=O)O)c1O in this test?
Output: inactive

Input: So what was the verdict on NC(=O)CCCCC1CCSS1 (centres undefined) in this test?
Output: inactive

Input: So what was the verdict on NS(=O)(=O)c1ccc(C(=O)O)cc1 in this test?
Output: inactive

Input: So what was the verdict on Cc1cc(C)nc(NS(=O)(=O)c2ccc(N)cc2)n1 in this test?
Output: inactive

Input: So what was the verdict on O=C(O)c1ccccc1OP(=O)(O)O in this test?
Output: inactive

Input: So what was the verdict on CCN(CC)S(=O)(=O)c1ccc(C(=O)O)cc1 in this test?
Output: inactive

Input: So what was the verdict on COc1ccc2cc(CCC(C)=O)ccc2c1 in this test?
Output: inactive

Input: So what was the verdict on O=C(NCCCN1CCOCC1)c1ccc(Cl)cc1 in this test?
Output: inactive

Input: So what was the verdict on Cc1c(I)c(=O)n(-c2ccccc2)n1C in this test?
Output: inactive

* * *

Test system: N140
protocol_description: qHTS profiling for inhibitors of Plasmodium falciparum proliferation (AID 504749);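 also: 0% = DMSO vehicle and full inhibition = artemisinin control; nearly all actives have a fitted effect of over 60% in size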
conditions: P. falciparum in erythrocytes, SYBR Green DNA, 72 h; series mostly up to 28.7 µM
Records with an inconclusive call do not appear. Calls of active or inactive are those of the source. The call rests on the fitted dose curve; in most records, active means well fitted inhibition curve with a large enough effect; inconclusive means small, poorly fitted or top-dose-only effect; inactive means flat fitted curve, though single readings scatter.
readout_name: outcome

[[record]]
molecule = "CC(=O)NS(=O)(=O)c1ccc(N)cc1"
assay_target = "N140"
result = "inactive"

[[record]]
molecule = "C[C@@H]1O[C@@H](OC[C@H]2O[C@@H](Oc3c(-c4ccc(O)c(O)c4)oc4cc(O)cc(O)c4c3=O)[C@H](O)[C@@H](O)[C@@H]2O)[C@H](O)[C@H](O)[C@H]1O"
assay_target = "N140"
result = "inactive"

[[record]]
molecule = "CCCCC1(COC(=O)CCC(=O)O)C(=O)N(c2ccccc2)N(c2ccccc2)C1=O"
assay_target = "N140"
result = "inactive"

[[record]]
molecule = "COc1nccnc1NS(=O)(=O)c1ccc(N)cc1"
assay_target = "N140"
result = "inactive"

[[record]]
molecule = "Cn1c(=O)c2c(ncn2CCO)n(C)c1=O"
assay_target = "N140"
result = "inactive"

[[record]]
molecule = "CCOc1cc(NC(C)=O)ccc1C(=O)OC"
assay_target = "N140"
result = "inactive"

[[record]]
molecule = "Cc1ccc(C(C)C)c(O)c1"
assay_target = "N140"
result = "inactive"

[[record]]
molecule = "NC(=O)NS(=O)(=O)c1ccc(N)cc1"
assay_target = "N140"
result = "inactive"

[[record]]
molecule = "COc1ccc(C(=O)N2CCN(CC(=O)N3CCOCC3)CC2)cc1"
assay_target = "N140"
result = "inactive"

[[record]]
molecule = "O=C1c2cccc(O)c2C(=O)c2c(O)cccc21"
assay_target = "N140"
result = "inactive"


Hey, quick one: what's outcome for each of these?
1. CCOc1ccc(C(=O)OCCN(CC)CC)cc1
2. COC(=O)c1ccc(O)cc1
3. Cc1cccc(C)c1NC(=O)CC12CCCN1CCC2
4. CNc1c2c(nn1C)CCCC2
5. CCCCCCCCCCCCCCCCN
6. Cc1cc(=O)[nH]c(=S)[nH]1
7. O=c1[nH]cnc2nc[nH]c12

Output:
inactive
inactive
inactive
inactive
inactive
inactive
inactive

Hey, quick one: what's outcome for each of these?
1. CN1CCCN=C1COC(=O)C(O)(c1ccccc1)C1CCCCC1 (stereo not drawn)
2. O=c1[nH]c(=O)c2ccccc2o1

Output:
1. inactive
2. inactive
